Assay: HepG2 cell viability effects, profiling panel, calcein-AM fluorescence, 48 h, basal (AID 1164); note: test concentration not given here
Conditions: higher = more signal
The label depends only on z-score: true (1) if it is at least 0.1, false (0) if it is smaller.

| Compound | Category |
| --- | --- |
| [N-]=[N+]=Nc1ccccc1C[C@@]1(C(=O)NCCN2CCOCC2)N=C(c2ccc(OCCCO)cc2)O[C@@H]1c1ccccc1 | true (1) |
| COCCOC(=O)N1C(=O)[C@@]2(c3cc(C#Cc4ccc(OC)cc4)ccc31)[C@H](c1ccccc1OCCO)N1[C@H](c3ccccc3)[C@H](c3ccccc3)OC(=O)[C@H]1[C@@H]2C(=O)N1CCN(c2ncccn2)CC1 | true (1) |
| Cc1ccc(C(C)CC(O)C2C=CC3C(=O)N(C)C(=O)C3N2NC(=O)OC(C)(C)C)o1 (stereo unspecified) | true (1) |
| O=C1C[C@]2(c3ccc([N+](=O)[O-])cc3)C(=O)N(CCN3CCOCC3)c3cc(CO)ccc3[C@H]2N1C1CCCCC1 | true (1) |
| COC(=O)[C@@]1(Cc2ccc(F)cc2)[C@H]2c3cc(C(=O)N(C)C)n(CC4CC4)c3C[C@H]2CN1C(=O)c1ccccc1 | false (0) |
| CC(C)(C)OC(=O)CC[C@@]12N=C(c3ccc(OCCCO)cc3)O[C@@H]1c1ccccc1N(CCS(=O)(=O)c1ccccc1)C2=O | true (1) |
| COc1ccc(NN2C(C(O)c3ccc([N+](=O)[O-])cc3)C=CC3C(=O)N(C4CCCCC4)C(=O)C32)cc1 (stereo unspecified) | true (1) |
| C=CCNC(=O)[C@H]1[C@@H]2C(=O)O[C@@H](c3ccccc3)[C@@H](c3ccccc3)N2[C@@H](c2ccc(O)cc2)[C@]12C(=O)N(C(=O)OCCOC)c1ccc(C#CCNC(N)=O)cc12 | true (1) |
| CC(C)(C)OC(=O)CC[C@@]1(C(N)=O)N=C(c2ccc(OCCCO)cc2)O[C@@H]1c1ccccc1 | true (1) |
| [N-]=[N+]=Nc1ccccc1[C@H]1OC(c2ccc(OCCCO)cc2)=N[C@@]1(Cc1ccccc1)C(=O)O | true (1) |
| [N-]=[N+]=NCc1ccccc1[C@H]1OC(c2ccc(OCCCO)cc2)=N[C@@]1(Cc1ccccc1)C(=O)NCc1ccccc1 | true (1) |
| COCCOC(=O)N1C(=O)[C@@]2(c3cc(C#Cc4ccc(OC)cc4)ccc31)[C@H](C(=O)N1CCCCCCC1)[C@H]1C(=O)O[C@H](c3ccccc3)[C@H](c3ccccc3)N1[C@@H]2c1ccc(OCCO)cc1 | true (1) |
| C=CCOC(=O)[C@H]1[C@@H]2C(=O)O[C@@H](c3ccccc3)[C@@H](c3ccccc3)N2[C@@H](c2ccc(OCCOC(=O)[C@H]3C[C@H]4C(=O)N5CCC[C@H]5C(=O)N4[C@H]3c3ccc(O)cc3)cc2)[C@]12C(=O)Nc1ccccc12 | true (1) |
| COc1ccc(C(=O)Nc2ccc(CN3C(=O)[C@@]4(O[C@@H](CCn5cc([C@H](O)c6ccccc6)nn5)[C@H]([Si](C)(C)c5ccc(OC)cc5)[C@H]4C)c4ccccc43)cc2)cc1 | false (0) |
| C[N+](C)(C)CCCCNC(=O)[C@H]1C[C@H]2C(=O)N[C@@H](Cc3ccccc3)C(=O)N2[C@H]1c1ccc(O)cc1 | false (0) |
| C=C(CCCC)C(=O)CC[C@H](OC(C)=O)c1cccc(OCCO)c1 | false (0) |
| CC(=O)N1Cc2ccccc2C[C@@]2(COC(c3ccc(OCCCO)cc3)=N2)C1=O | true (1) |
| COC(=O)c1c(CC[C@@H](CO)NC(=O)N[C@@H](C)Cn2cc(C3(O)CCCCC3)nn2)oc(C(C)=O)c1C(=O)OC | false (0) |
| CN(C)C(=O)[C@]1(Cc2ccccc2N=[N+]=[N-])N=C(c2ccc(OCCCO)cc2)O[C@@H]1c1ccccc1 | true (1) |
| COc1ccc([Si](C)(C)[C@H]2[C@H](CC(=O)N3Cc4ccccc4C[C@H]3CO)O[C@@]3(C(=O)N(Cc4ccc(N5CCC5=O)cc4)c4ccccc43)[C@@H]2C)cc1 | false (0) |
| C=CCNC(=O)[C@@H]1[C@H]2C(=O)O[C@H](c3ccccc3)[C@H](c3ccccc3)N2[C@H](c2ccccc2OCCO)[C@@]12C(=O)N(C(=O)OCCOC)c1ccc(C#CCNC(N)=O)cc12 | true (1) |
